Assayed system: PDE4D7 (Homo sapiens, UniProt Q08499)
Sequence (Q08499 1-748 isoform Q08499-11): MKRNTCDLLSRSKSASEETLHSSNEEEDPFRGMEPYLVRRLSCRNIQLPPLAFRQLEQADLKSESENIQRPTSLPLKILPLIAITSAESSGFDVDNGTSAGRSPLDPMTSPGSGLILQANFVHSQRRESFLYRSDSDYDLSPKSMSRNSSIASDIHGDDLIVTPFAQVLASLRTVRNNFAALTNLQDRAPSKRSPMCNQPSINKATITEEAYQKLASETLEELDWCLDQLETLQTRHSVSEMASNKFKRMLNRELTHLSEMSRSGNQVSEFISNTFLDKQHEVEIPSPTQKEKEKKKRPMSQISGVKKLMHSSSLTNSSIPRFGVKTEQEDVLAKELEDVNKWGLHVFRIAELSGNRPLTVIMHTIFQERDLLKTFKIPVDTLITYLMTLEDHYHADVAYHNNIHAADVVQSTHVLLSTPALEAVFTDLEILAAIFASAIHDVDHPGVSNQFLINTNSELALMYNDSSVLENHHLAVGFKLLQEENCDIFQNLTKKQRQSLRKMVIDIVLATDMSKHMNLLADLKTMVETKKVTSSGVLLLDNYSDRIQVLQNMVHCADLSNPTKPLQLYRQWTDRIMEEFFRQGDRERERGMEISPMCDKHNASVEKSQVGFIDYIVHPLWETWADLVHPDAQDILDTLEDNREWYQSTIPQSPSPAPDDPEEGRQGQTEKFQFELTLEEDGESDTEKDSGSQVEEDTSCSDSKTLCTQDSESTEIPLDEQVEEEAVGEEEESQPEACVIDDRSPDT
Method notes: PDE enzyme activity assay (HTRF cGMP), PDE4D7
Type: biochemical
Condition parameters: read-out: PDE4D7 inhibition (IC50)
pIC50: −log10 of the molar value.
Readout name: pIC50

>>> data_value("COc1ccc(N(C(=O)c2c(Cl)cncc2Cl)C2CCN(c3ncc(C(=O)NO)cn3)CC2)cc1OC1CCCC1")
"< 5.00"

---

Assayed system: PDE9A isoform b (Homo sapiens)
Construct: they are full-length with N-terminal GST tag; GST (N)
Sequence (O76083 1-533 isoform O76083-2): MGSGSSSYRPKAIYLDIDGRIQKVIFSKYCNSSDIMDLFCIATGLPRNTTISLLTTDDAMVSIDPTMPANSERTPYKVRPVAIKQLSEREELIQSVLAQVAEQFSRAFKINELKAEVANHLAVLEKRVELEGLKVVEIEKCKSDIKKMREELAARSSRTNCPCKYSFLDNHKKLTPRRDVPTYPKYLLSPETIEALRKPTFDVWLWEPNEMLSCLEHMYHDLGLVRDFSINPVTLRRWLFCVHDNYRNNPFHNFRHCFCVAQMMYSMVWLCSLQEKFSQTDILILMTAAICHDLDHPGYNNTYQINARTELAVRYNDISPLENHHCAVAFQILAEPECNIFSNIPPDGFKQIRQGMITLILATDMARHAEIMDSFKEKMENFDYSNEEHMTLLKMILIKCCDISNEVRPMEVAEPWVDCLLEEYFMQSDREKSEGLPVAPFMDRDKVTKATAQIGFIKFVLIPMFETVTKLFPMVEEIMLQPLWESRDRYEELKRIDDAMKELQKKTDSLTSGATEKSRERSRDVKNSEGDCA
Method notes: PDE enzyme activity assay (HTRF cGMP), PDE9A
Condition parameters: recombinant enzyme; read-out: PDE9A inhibition (IC50)
pIC50: −log10 of the molar value.
Readout name: pIC50

>>> data_value("CC(c1nc2c(cnn2C2CCOCC2)c(=O)[nH]1)N1CC(Oc2ccc(/C=C/C(=O)NO)cc2)C1 (stereo not shown) [Example 3-06]")
"> 8.00"
>>> data_value("COc1ccc(C(=O)Nc2c(Cl)cncc2Cl)cc1OC1CCCC1 [Piclamilast, reference compound]")
"< 5.00"
>>> data_value("CC(c1nc2c(cnn2C2CCOCC2)c(=O)[nH]1)N1CC(Oc2ccc(-c3ccc(C(=O)NO)cc3)cc2)C1 (stereo not shown) [Example 3-03]")
"6.00 to 8.00"
>>> data_value("O=C(CCCCCCC(=O)Nc1ccccc1)NO [Vorinostat, reference compound]")
"< 5.00"
>>> data_value("CCCc1nn(C)c2c(=O)[nH]c(-c3cc(S(=O)(=O)N4CCN(c5ncc(C(=O)NO)cn5)CC4)ccc3OCC)nc12 [Example 1-06]")
"< 5.00"
>>> data_value("CC1CN(Cc2ccc(C(=O)NO)s2)CC1c1nc2c(cnn2C2CCCC2)c(=O)[nH]1 (racemic) [Example 3-17]")
"> 8.00"
>>> data_value("C[C@H]1CN(Cc2ccc(C(=O)NO)cc2)C[C@@H]1c1nc2c(cnn2C2CCOCC2)c(=O)[nH]1 (racemic) [Example 3-09]")
"6.00 to 8.00"
